assay: Photostability test in glass vials not shielded from light: gelation, molecular weight, percent conjugation of MTX (Example 4(2)); type: physicochemical; conditions: additive 1 mg/ml; 4000 Lux, 25° C., not shielded from light
measuredQuantity: Percent Conjugation (%) of MTX, irradiation time 300 h

> print(dat)
                                   compound  displayunit  experimentalvalue
1          N[C@@H](Cc1c[nH]c2ccccc12)C(=O)O            %                2.2
2  O=C([O-])CS.[Na+] [Na thioglycolate, sodium thioglycolate]            %                0.4
3  COC(=O)c1ccc(O)cc1 [Methyl paraben, methyl p-hydroxybenzoate]            %                1.9
4    CC(=O)N[C@@H](Cc1c[nH]c2ccccc12)C(=O)O            %                2.1
